# Test system: CAKI-1
# assayName: NCI tumour cell line growth inhibition, 48 h
Calls of active or inactive are those of the source. No stated cut-off is given here; in the data, active = GI50 up to about 1.1 µM and inactive = higher.
measuredMetric: GI50

Notebook: pull reported GI50 for CAKI-1, entry `CC(C)OC(=O)Nc1cccc(Cl)c1`
> 100 µM (inactive)

Notebook: pull reported GI50 for CAKI-1, entry `O=C(O)c1cc2ccccc2c2c1C(=O)c1ccccc1-2`
> 100 µM (inactive)

Notebook: pull reported GI50 for CAKI-1, entry CC1(C)OCC2OC3([C@H]4OC(C)(C)O[C@@H]4CO)OC(C)(C)OC3C2O1 (stereo partly specified)
> 100 µM (inactive)

Notebook: pull reported GI50 for CAKI-1, entry `O[C@@H]1[C@H](OC2c3ccccc3-c3ccccc32)[C@H](OCc2ccccc2)[C@@H]2OC[C@H]1O2`
> 100 µM (inactive)

Notebook: pull reported GI50 for CAKI-1, entry `CCCNC(=S)N/C=C1/C(=O)C=C(C)OC1=O`
> 100 µM (inactive)

Notebook: pull reported GI50 for CAKI-1, entry `NNC(=O)CNC(=O)CSc1nnc(COc2ccc(Cl)cc2)n1-c1ccccc1`
> 100 µM (inactive)

Notebook: pull reported GI50 for CAKI-1, entry `CCCCCCCCCCCCCCCCNC(=O)/C(O)=C/C(=O)c1ccc(C)cc1`
> 10 µM (inactive)

Notebook: pull reported GI50 for CAKI-1, entry `Nc1ccc(S(=O)(=O)Nc2nc3ccccc3nc2N2CCCCC2)cc1`
> 100 µM (inactive)

###

GI50 listing for selected compounds.
# Test system: MOLT-4
# assayName: NCI tumour cell line growth inhibition, 48 h
Active and inactive are the calls of the source. Cut-off read from the data, not from the text of the source: active = GI50 up to about 1.1 µM and inactive = higher.

Consider the following illustrative entries.
Cc1ccc2nc(Cl)c(/C=N/N3C(=O)/C(=C/c4ccccc4S)N=C3c3ccccc3)cc2c1 :: 1.85 µM (inactive)
Cc1c(Cl)ccc2c1NC(=O)C2(O)CC(=O)c1ccc(Cl)cc1Cl (stereo not drawn) :: 22.5 µM (inactive)

Notebook: pull reported GI50 for MOLT-4, entry `C[C@]12CC[C@H](O)CC1=CC[C@@H]1[C@@H]2CC[C@]2(C)c3nc(Cl)ccc3C[C@@H]12`
8.45 µM (inactive)

###

# System: MDA-N
# assayName: NCI tumour cell line growth inhibition, 48 h
Calls of active or inactive are those of the source. Cut-off read from the data, not from the text of the source: active = GI50 up to about 1.1 µM and inactive = higher.
Choose one outcome from this list and give only that: active, inactive

CCC(c1nc2ccccc2c(=O)n1NC(=O)C(C)(C)C)C1(O)CCCCC1 (centres undefined) :: inactive
O=C(O)CNc1ccc(Cl)c(Cl)c1 :: inactive
C=C(C(=O)O[C@H]1C(=O)C2=C(C)CCC3C(=C)C(=O)O[C@@H]3C2[C@]1(C)O)C1CC[C@]2(C)CCCC(=C)[C@H]2C1 (some centres undefined) :: inactive

Moving on to another molecule below.
Hi team, can someone confirm the assay call for `Cc1nc(N)nc(N)c1-c1ccc(Cl)c(Cl)c1` ?
active

###

# Tested on: MDA-N
# assayName: NCI tumour cell line growth inhibition, 48 h
Activity calls are given as the source filed them. No stated cut-off is given here; in the data, active = GI50 up to about 1.1 µM and inactive = higher.
Choose one outcome from this list and give only that: Yes (active), No (inactive)

Study these solved cases before continuing.
NNC(=O)c1ccccc1NC(=O)/C(=C/c1ccccc1O)NC(=O)c1ccccc1 :: No
CC1(C)N(OC2CCCCO2)C(c2ccccc2)C(c2ccccc2)=[N+]1[O-] (stereo not given) :: No
COc1cc(C2c3cc4c(cc3[C@H](NC(=O)c3cccs3)C3COC(=O)[C@H]23)OCO4)cc(OC)c1OC (stereo not given in full) :: Yes

Hi team, can someone confirm the assay call for `Nc1ccc(S(=O)(=O)Nc2nc3ccccc3nc2N2CCCCC2)cc1` ?
No

Hi team, can someone confirm the assay call for `O=C(c1cccc(C(=O)c2ccc3c4c(cccc24)C(=O)N(c2ccccc2)C3=O)c1)c1ccc2c3c(cccc13)C(=O)N(c1ccccc1)C2=O` ?
No

Hi team, can someone confirm the assay call for `COC(=O)/C=C/C1(O)C=CC(=O)C=C1` ?
No

Hi team, can someone confirm the assay call for `CCOC(=O)Nn1c(C)nnc1-c1ccccc1` ?
No

Hi team, can someone confirm the assay call for `S=C1CSc2c(ccc3ccccc23)N1` ?
No

Hi team, can someone confirm the assay call for NC(=O)c1csc(C2(O)COC(CO)C2O)n1 (stereo not given) ?
No

Hi team, can someone confirm the assay call for `CC(=O)O[C@H]1CC[C@@]2(C)C(=CC[C@@H]3[C@@H]2CC[C@]2(C)c4c(C)nn(-c5ccccc5)c4C[C@@H]32)C1` ?
No

###

GI50 listing for selected compounds.
# System: OVCAR-3
# assayName: NCI tumour cell line growth inhibition, 48 h
Active and inactive are the calls of the source. Rule as the data show it: active = GI50 up to about 1.1 µM and inactive = higher.

Consider the following illustrative entries.
COC(=O)[C@H]1COC(=S)N1C(=O)[C@@H](C)[C@H](O)C(C)C :: > 100 µM (inactive)
O=C1OCc2nc3c(c(-c4ccccc4C(F)(F)F)c21)C(=O)OC3 :: > 100 µM (inactive)
O=[N+]([O-])c1ccc(Oc2c(Cl)cc(S(=O)(=O)N/C(=N\O)Nc3ccc(Cl)cc3)cc2Cl)cc1 :: 5.87 µM (inactive)
O=C1c2cc3c(cc2[C@@H]2NC4CCCC14O2)OCO3 (stereo partly drawn) :: > 100 µM (inactive)
O=C1CCc2ccc(O)c(c2)Oc2ccc(cc2)[C@@H]2O[C@@H]2CO1 :: 32.8 µM (inactive)
COc1ccc(-n2c(=O)n(C)c(=O)n2-c2ccc(OC)cc2)cc1 :: > 100 µM (inactive)
Fc1ccc(C(OCCN2CCN(CCCCl)CC2)c2ccc(F)cc2)cc1 :: 25.8 µM (inactive)
O=c1onc2c3ccccc3ncn12 :: > 100 µM (inactive)
Cc1ccsc1/C=N/Nc1cnccn1 :: > 100 µM (inactive)
COc1ccc(/C(=N/O)c2ccccc2-c2nc3ccccc3c(=O)n2-c2ccc(S(=O)(=O)Nc3ncccn3)cc2)cc1C :: 15.8 µM (inactive)

Please report the recorded GI50 for CN(C(=O)C12C3(C(=O)C(C)(C)C)C4C5(C#N)C3C1(C(=O)C(C)(C)C)C5C42C(=O)C(C)(C)C)C(C)(C)C (stereo not drawn) .
38.9 µM (inactive)

Please report the recorded GI50 for `Cc1cc(=O)n2nc(CSc3nnc(N)s3)sc2n1` .
> 100 µM (inactive)

Please report the recorded GI50 for N#C/N=C1\NC(Cc2ccccc2)C(=O)N1CCc1c[nH]c2ccccc12 (stereo not drawn) .
33.6 µM (inactive)

###

GI50 listing for selected compounds.
# Test system: Malme-3M
# assayName: NCI tumour cell line growth inhibition, 48 h
Calls of active or inactive are those of the source. Cut-off read from the data, not from the text of the source: active = GI50 up to about 1.1 µM and inactive = higher.

Please report the recorded GI50 for Cc1[nH]c2ccccc2c1C1Cc2ccccc2N1C(=O)C#Cc1ccc([N+](=O)[O-])cc1 (stereo unspecified) .
> 100 µM (inactive)

Please report the recorded GI50 for CN(C)c1ccc(/C=C(\NC(=O)c2ccccc2)C2NC(Cc3c[nH]c4ccccc34)C(=O)O2)cc1 (stereo unspecified) .
21.4 µM (inactive)

Please report the recorded GI50 for `O=c1[nH]c(=O)n(COCc2ccccc2)c2ccsc12` .
> 100 µM (inactive)

Please report the recorded GI50 for `Cc1ccc([N+](=O)[O-])c2c(NCCCN(C)C)ccnc12` .
17 µM (inactive)

Please report the recorded GI50 for `CC(C)C1=C(Cc2ccccc2)C(=O)O/C1=C\c1cc(Cl)c(O)c(Cl)c1` .
16.7 µM (inactive)

Please report the recorded GI50 for O=[N+]([O-])c1ccc(C2N3CCCCC3[C@H]3CCCCN23)cc1 (stereo partly specified) .
> 100 µM (inactive)

Please report the recorded GI50 for `CN(C)CCCn1cnc2cc(Cl)c(Cl)cc21` .
> 100 µM (inactive)

###

# Tested on: ACHN
# assayName: NCI tumour cell line growth inhibition, 48 h
The source made the active and inactive calls. No stated cut-off is given here; in the data, active = GI50 up to about 1.1 µM and inactive = higher.
Choose one outcome from this list and give only that: T (active), F (inactive)

O=c1onc2c3ccccc3ncn12 :: F
COc1ccc(C2C3=C(CCCC3=O)N(c3ccccc3)C3=C2C(=O)CCC3)cc1 :: F
COc1ccc(/C=c2/[nH]c(=O)/c(=C\c3ccc(OCc4ccccc4)cn3)[nH]c2=O)cc1 :: F
[N-]=[N+]=NI1OC(=O)c2ccccc21 :: F
Nc1nc2c(ncn2CCOC(c2ccccc2)P(=O)(O)O)c(=O)[nH]1 (stereo unspecified) :: F
CC(=O)OC(C)(C)/C=C/C(=O)[C@](C)(O)[C@H]1[C@H](O)C[C@@]2(C)[C@@H]3CC=C4[C@@H](C[C@H](O)[C@H](O)C4(C)C)[C@]3(C)C(=O)C[C@]12C :: T

Moving on to another compound below.
Hi team, can someone confirm the assay call for `COc1ccc(OC)c(CCc2cc(OC)c(OC)cc2C)c1` ?
F

###

# System: 786-0
# assayName: NCI tumour cell line growth inhibition, 48 h
Calls of active or inactive are those of the source. Rule as the data show it: active = GI50 up to about 1.1 µM and inactive = higher.
Choose one outcome from this list and give only that: active, inactive

COc1ccc(C2S/C(=C\c3ccccc3)C(=O)N2NC(=O)Cc2ccccc2)cc1 (configuration not stated) :: inactive
CCOC(=O)c1cc(C2(O)CCN(Cc3ccccc3)C2=O)c(-c2cc(C)no2)[nH]1 (configuration not stated) :: inactive
O=c1[nH]c(=O)n(C2CC(O)C(COP(=O)(OCC(Cl)(Cl)Cl)OCC(Cl)(Cl)Cl)O2)cc1F (configuration not stated) :: active

Hi team, can someone confirm the assay call for `O=C(c1cccs1)N1CCc2ccccc2C1` ?
inactive

Hi team, can someone confirm the assay call for `CC[C@@]1(CCC(=O)NCCc2c[nH]c3ccccc23)CCC(=O)N2CCc3c([nH]c4ccccc34)[C@H]21` ?
inactive

Hi team, can someone confirm the assay call for CN(C)c1ccc(/C=C(\NC(=O)c2ccccc2)C2NC(Cc3c[nH]c4ccccc34)C(=O)O2)cc1 (configuration not stated) ?
inactive

Cited source for all entries: ChEMBL document CHEMBL1201862
